Origin of the recorded values: patent US20160215061A1

Give measured Fold Increase in RU vs WT IgG1 for each item. Keep answers brief.
Biological target: T1, recombinant mouse FcγRIIB expressed in NS0 cells (mouse, UniProt P08101 40-207, limits assumed)
T1 construct: Bought from R&D Systems; soluble analyte injected in SPR; also called rmFcgRIIB (NSO); CD32-B
T1 sequence (looked up): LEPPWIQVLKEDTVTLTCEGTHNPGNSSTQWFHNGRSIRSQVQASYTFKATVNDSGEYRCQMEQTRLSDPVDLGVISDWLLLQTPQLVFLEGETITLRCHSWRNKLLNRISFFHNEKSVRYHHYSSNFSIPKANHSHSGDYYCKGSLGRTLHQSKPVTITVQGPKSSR
Test: SPR (Biacore); capture sample on chip, rmFcgRIIB (NSO) injected; reference Herceptin
Give the value, in units of fold, as a plain number.

Prompt line: For the binder shown here, 183-D4/F241A Fc (SEQ ID NO13) (other, Human IgG1 Fc fragment with F241A, K317E, K326E, A339T, Q342R, K414R (EU)) AEPKSCDKTHTCPPCPAPELLGGPSVALFPPKPKDTLMISRTPEVTCVVVDVSHEDPEVKFNWYVDGVEVHNAKTKPREEQYNSTYRVVSVLTVLHQDWLNGEEYKCKVSNEALPAPIEKTISKTKGRPREPQVYTLPPSRDELTKNQVSLTCLVKGFYPSDIAVEWESNGQPENNYKTTPPVLDSDGSFFLYSKLTVDRSRWQQGNVFSCSVMHEALHNHYTQKSLSLSPGK , give the reported Fold Increase in RU vs WT IgG1.
Response line: 5

Prompt line: For the binder shown here, K317E/K326E/K414R Fc (SEQ ID NO11) (other, Human IgG1 Fc fragment, made in glycoengineered Pichia pastoris) AEPKSCDKTHTCPPCPAPELLGGPSVFLFPPKPKDTLMISRTPEVTCVVVDVSHEDPEVKFNWYVDGVEVHNAKTKPREEQYNSTYRVVSVLTVLHQDWLNGEEYKCKVSNEALPAPIEKTISKAKGQPREPQVYTLPPSRDELTKNQVSLTCLVKGFYPSDIAVEWESNGQPENNYKTTPPVLDSDGSFFLYSKLTVDRSRWQQGNVFSCSVMHEALHNHYTQKSLSLSPGK , give the reported Fold Increase in RU vs WT IgG1.
Response line: 5.2

Prompt line: For the binder shown here, F243A/V264A/S267E/L328F Fc (SEQ ID NO8) (other, Human IgG1 Fc fragment with F243A, V264A, S267E, L328F (EU)) AEPKSCDKTHTCPPCPAPELLGGPSVFLAPPKPKDTLMISRTPEVTCVVADVEHEDPEVKFNWYVDGVEVHNAKTKPREEQYNSTYRVVSVLTVLHQDWLNGKEYKCKVSNKAFPAPIEKTISKAKGQPREPQVYTLPPSREEMTKNQVSLTCLVKGFYPSDIAVEWESNGQPENNYKTTPPVLDSDGSFFLYSKLTVDKSRWQQGNVFSCSVMHEALHNHYTQKSLSLSPG , give the reported Fold Increase in RU vs WT IgG1.
Response line: 2.4
